system: Staphylococcus epidermidis; experiment: Antimicrobial activity against methicillin-sensitive Staphylococcus epidermidis 09-9 by broth microdilution method; format: functional

[
  {
    "Substance Smiles": "CO[C@H]1/C=C\\C(=O)O[C@H](C)C/C=C/C=C/[C@H](OC(C)=O)[C@H](C)C[C@H](CC=O)[C@@H]1O[C@@H]1O[C@H](C)[C@@H](OC(=O)Nc2ccc(C(F)(F)F)cc2)[C@H](N(C)C)[C@H]1O",
    "Assay Target": "Staphylococcus epidermidis",
    "Lt Gt Eq": ">",
    "MIC (µg/mL)": 64
  },
  {
    "Substance Smiles": "COc1ccc(C(=O)O[C@H]2[C@H](N(C)C)[C@@H](O)[C@H](O[C@H]3[C@@H](CC=O)C[C@@H](C)[C@@H](OC(C)=O)/C=C/C=C/C[C@@H](C)OC(=O)C[C@@H](OC(C)=O)[C@@H]3OC)O[C@@H]2C)cc1",
    "Assay Target": "Staphylococcus epidermidis",
    "Lt Gt Eq": "=",
    "MIC (µg/mL)": 8
  },
  {
    "Substance Smiles": "CO[C@@H]1[C@@H](O[C@@H]2O[C@H](C)[C@@H](OC(=O)c3ccc([N+](=O)[O-])cc3)[C@H](N(C)C)[C@H]2O)[C@@H](CC=O)C[C@@H](C)[C@@H](OC(C)=O)/C=C/C=C/C[C@@H](C)OC(=O)C[C@H]1OC(C)=O",
    "Assay Target": "Staphylococcus epidermidis",
    "Lt Gt Eq": "=",
    "MIC (µg/mL)": 32
  },
  {
    "Substance Smiles": "CO[C@@H]1[C@@H](O[C@@H]2O[C@H](C)[C@@H](OC(=O)/C=C/c3ccnc4ccccc34)[C@H](N(C)C)[C@H]2O)[C@@H](CC=O)C[C@@H](C)[C@@H](OC(C)=O)/C=C/C=C/C[C@@H](C)OC(=O)C[C@H]1OC(C)=O",
    "Assay Target": "Staphylococcus epidermidis",
    "Lt Gt Eq": "=",
    "MIC (µg/mL)": 8
  },
  {
    "Substance Smiles": "CO[C@H]1/C=C\\C(=O)O[C@H](C)C/C=C/C=C/[C@H](O)[C@H](C)C[C@H](CC=O)[C@@H]1O[C@@H]1O[C@H](C)[C@@H](OC(=O)Nc2ccc(C(F)(F)F)cc2)[C@H](N(C)C)[C@H]1O",
    "Assay Target": "Staphylococcus epidermidis",
    "Lt Gt Eq": ">",
    "MIC (µg/mL)": 64
  },
  {
    "Substance Smiles": "CCCC(=O)O[C@H]1[C@H](N(C)C)[C@@H](O)[C@H](O[C@H]2[C@@H](CC=O)C[C@@H](C)[C@@H](OC(C)=O)/C=C/C=C/C[C@@H](C)OC(=O)C[C@@H](OC(C)=O)[C@@H]2OC)O[C@@H]1C",
    "Assay Target": "Staphylococcus epidermidis",
    "Lt Gt Eq": "=",
    "MIC (µg/mL)": 4
  },
  {
    "Substance Smiles": "CO[C@@H]1[C@@H](O[C@@H]2O[C@H](C)[C@@H](OC(=O)CCc3ccccc3)[C@H](N(C)C)[C@H]2O)[C@@H](CC=O)C[C@@H](C)[C@@H](OC(C)=O)/C=C/C=C/C[C@@H](C)OC(=O)C[C@H]1OC(C)=O",
    "Assay Target": "Staphylococcus epidermidis",
    "Lt Gt Eq": "=",
    "MIC (µg/mL)": 4
  },
  {
    "Substance Smiles": "CO[C@@H]1[C@@H](O[C@@H]2O[C@H](C)[C@@H](OC(=O)/C=C/c3ccccc3)[C@H](N(C)C)[C@H]2O)[C@@H](CC=O)C[C@@H](C)[C@@H](OC(C)=O)/C=C/C=C/C[C@@H](C)OC(=O)C[C@H]1OC(C)=O",
    "Assay Target": "Staphylococcus epidermidis",
    "Lt Gt Eq": "=",
    "MIC (µg/mL)": 4
  },
  {
    "Substance Smiles": "CO[C@@H]1[C@@H](O[C@@H]2O[C@H](C)[C@@H](OC(=O)CC(C)C)[C@H](N(C)C)[C@H]2O)[C@@H](CC=O)C[C@@H](C)[C@@H](OC(C)=O)/C=C/C=C/C[C@@H](C)OC(=O)C[C@H]1OC(C)=O",
    "Assay Target": "Staphylococcus epidermidis",
    "Lt Gt Eq": "=",
    "MIC (µg/mL)": 8
  },
  {
    "Substance Smiles": "CO[C@H]1/C=C\\C(=O)O[C@H](C)C/C=C/C=C/[C@H](O)[C@H](C)C[C@H](CC=O)[C@@H]1O[C@@H]1O[C@H](C)[C@@H](O)[C@H](N(C)C)[C@H]1O",
    "Assay Target": "Staphylococcus epidermidis",
    "Lt Gt Eq": ">",
    "MIC (µg/mL)": 32
  },
  {
    "Substance Smiles": "CO[C@@H]1[C@@H](O[C@@H]2O[C@H](C)[C@@H](OC(=O)c3ccccc3)[C@H](N(C)C)[C@H]2O)[C@@H](CC=O)C[C@@H](C)[C@@H](OC(C)=O)/C=C/C=C/C[C@@H](C)OC(=O)C[C@H]1OC(C)=O",
    "Assay Target": "Staphylococcus epidermidis",
    "Lt Gt Eq": "=",
    "MIC (µg/mL)": 8
  }
]
